Test: NCI Yeast Anticancer Drug Screen. Data for the mec2-1 strain (AID 157)
Conditions: S. cerevisiae mec2-1 strain, at 50.0 µM, hits give high values
This is part of a sample that, as a whole, favours compounds with a hit. Of some 79,000 tested, about 15% had one in any assay.
value type: growth inhibition (%)
Give the value, in units of %, as a plain number.

Prompt: Give its growth inhibition value. Item: CC1OC(O[C@@H]2OC=C(C=O)[C@@]3(O)CC[C@H](C)[C@@H]23)C(O)C(O)C1O (some centres not stated)
Completion: -10.4

Prompt: Give its growth inhibition value. Item: OCC1=CCCCC1
Completion: 1.85

Prompt: Give its growth inhibition value. Item: C=C(Br)C[N+](CC)(CC)CC
Completion: -3.3

Prompt: Give its growth inhibition value. Item: O=C(Nc1ccc(C(=O)CCl)cc1)Nc1ccc(C(=O)CCl)cc1
Completion: 14.1

Prompt: Give its growth inhibition value. Item: NC(=O)CC(NC(=O)OCc1ccccc1)C(N)=O (configuration not stated)
Completion: 8.4

Prompt: Give its growth inhibition value. Item: CC(=O)OC1CC(c2ccccc2)=NO1 (configuration not stated)
Completion: -21.5

Prompt: Give its growth inhibition value. Item: C(=C/c1ccccc1)/CN1CCCCC1
Completion: 19.4

###

Test: NCI Yeast Anticancer Drug Screen. Data for the mec2-1 strain (AID 157)
Conditions: S. cerevisiae mec2-1 strain, at 50.0 µM
Compounds without any hit were thinned out: in the full panel of roughly 79,000, 15% have a hit. The source made the active and inactive calls. Cut-off read from the data, not from the text of the source: active = growth inhibition above about 70%; inactive = the rest.
Use one of these outcomes when replying: active, inactive

Prompt: Called result for CC1(C)C2CCC(=O)C1C(OCc1ccccc1)C2 (stereo not given)
Completion: inactive

Prompt: Called result for CCOC(=O)NC(=O)c1cn(C2OC(COC(=O)CCCCCCCCC(=O)OCC3OC(n4cc(C(=O)NC(=O)OCC)c(=O)[nH]c4=O)C4OC(C)(C)OC34)C3OC(C)(C)OC32)c(=O)[nH]c1=O (stereo not given)
Completion: inactive

Prompt: Called result for O=C(OCCNC(=O)N1CCOCC1)OCCNC(=O)N1CCOCC1
Completion: inactive

Prompt: Called result for COc1cccc2c1C(=O)OC2c1cccc2ccccc12 (stereo not given)
Completion: inactive

Prompt: Called result for Nc1ncnc(N)c1NC(=O)CCCc1ccccc1
Completion: inactive

Prompt: Called result for CC(NC(=O)CN)C(=O)O (stereo not given)
Completion: inactive

Prompt: Called result for O=C(Nc1ccc(Cl)cc1)Nc1nnc2nc(C3(c4nc5nnc(NC(=O)Nc6ccc(Cl)cc6)n5[nH]c4=O)Cc4ccccc4C3=O)c(=O)[nH]n12
Completion: inactive

Prompt: Called result for COC(=O)C(=O)/C(=C\N1C(=O)CC(=O)NC1=S)C(=O)c1ccc([N+](=O)[O-])cc1
Completion: inactive

Prompt: Called result for CC(C)=CCCC(C)C=O (stereo not given)
Completion: inactive

Prompt: Called result for CCOCCOCCOC(=O)CC(C)=O
Completion: inactive

Prompt: Called result for CC(=O)c1ccc(C(=O)O)cc1
Completion: inactive

Prompt: Called result for COc1ccc2ccc3c(OC(C)=O)ccc(CCN(C)C(C)=O)c3c2c1OC(C)=O
Completion: inactive

Prompt: Called result for COC(=O)C(=C(C)C)S(=O)c1ccccc1 (stereo not given)
Completion: inactive

Prompt: Called result for COc1ccc(-c2cc(-c3ccccc3)c(-c3ccccc3)nn2)cc1CN1CCOCC1
Completion: inactive

Prompt: Called result for O=C(Nc1ccc([N+](=O)[O-])cc1)c1ccc(Cl)cc1
Completion: inactive

Prompt: Called result for O=[N+]([O-])c1ccc(/C=N\N=C\c2ccco2)cc1
Completion: inactive

Prompt: Called result for CN(C)c1nc2ccccc2[nH]1
Completion: inactive

Prompt: Called result for CCC12CCCN(Cc3ccccc3)C1c1c([nH]c3ccccc13)C(C(=O)OC)C2 (stereo not given)
Completion: inactive

Prompt: Called result for Cc1nc2ccccc2c(=O)n1/N=C\c1ccc2c(c1)CCC2
Completion: inactive

Prompt: Called result for CC1(C)C2CCC1C(=O)C(C=O)C2 (stereo not given)
Completion: inactive

Prompt: Called result for O=c1[nH]cc([N+](=O)[O-])c(=O)[nH]1
Completion: inactive

Prompt: Called result for CNC(CCNCCc1ccccc1)CNCCc1ccccc1 (stereo not given)
Completion: inactive

Prompt: Called result for CCC(=O)Oc1ccc(C(=O)O)cc1
Completion: inactive

Prompt: Called result for O=C(CCBr)OCCOc1ccccc1
Completion: inactive

Prompt: Called result for CCOC(=O)CCCC(NC(=O)c1ccc(N2CCN(c3c(N)nc(N)nc3NC)CC2)cc1)C(=O)OCC (stereo not given)
Completion: inactive

Prompt: Called result for COc1ccc(/C=C/C(=O)c2c(-c3ccccc3)nn(C)c(=O)c2N2CCCC2)cc1
Completion: inactive

Prompt: Called result for COc1cc(C(C)S(=O)(=O)c2ccc(C)cc2)ccc1O (stereo not given)
Completion: inactive

Prompt: Called result for Cc1ccc(C)c(NC(=O)Oc2cc(C)c(Cl)cc2C(C)C)c1
Completion: active

Prompt: Called result for CNn1c(-c2ccc(C)cc2)n[nH]c1=O
Completion: inactive

Prompt: Called result for Cc1ccccc1NC(=O)Oc1ccc2c(C)cc(=O)oc2c1
Completion: inactive

Prompt: Called result for O=C(CNc1ccccc1[N+](=O)[O-])Nn1cnc2ccc(S(=O)(=O)Nc3ccccc3[N+](=O)[O-])cc2c1=O
Completion: inactive

Prompt: Called result for O=C(OCC(O)C(O)C(O)C(O)COC(=O)c1ccccc1)c1ccccc1 (stereo not given) (tested in a mixture with another compound)
Completion: inactive

Prompt: Called result for CC(=N\N=C(c1ccccc1)c1ccccc1)/C(C)=N/N=C(c1ccccc1)c1ccccc1
Completion: inactive

Prompt: Called result for Ic1ccccc1/C=C/c1ccccn1
Completion: inactive

Prompt: Called result for CCOC(=O)CC1CC2c3cc(OC)c(OC)cc3CCN2CC1CC (stereo not given)
Completion: inactive

Prompt: Called result for COc1cccc(-c2cc(=O)c3cccc(CC(=O)O)c3o2)c1
Completion: inactive

Prompt: Called result for C[N+](C)(C)c1ccc(C(=O)[O-])cc1
Completion: inactive

Prompt: Called result for CC1=NN(c2nc(N)nc(CSc3cc(Cl)c(C)cc3S(N)(=O)=O)n2)C(C)(C)C1
Completion: inactive

Prompt: Called result for C#CCN(CC#C)C(=O)Nc1ccc(Cl)cc1
Completion: inactive

Prompt: Called result for CC([O-])=C1C(=O)c2ccccc2C1=O.CC([O-])=C1C(=O)c2ccccc2C1=O.CC[O-].CC[O-].[Ti+4]
Completion: inactive

Prompt: Called result for CC1=CC(=O)C2CC1C2(C)C (stereo not given)
Completion: inactive

Prompt: Called result for CCOP(=O)(OCC)/C(=C/NC(=S)c1cccnc1)C(=O)OC
Completion: inactive

Prompt: Called result for Cc1cccc2c(=O)[nH]c(=O)[nH]c12
Completion: inactive

Prompt: Called result for COc1ccc(C(=O)N/N=C/c2ccccc2OC)cc1
Completion: inactive

Prompt: Called result for CC(=O)NCC1(c2ccccc2)CCN(Cc2ccccc2)CC1
Completion: inactive

Cited source: PubChem BioAssay (NCI)
